Target: HLA-B*39:01
Assay: IEDB peptide-MHC binding, purified MHC/competitive/fluorescence; filed as Kd, often an IC50 or EC50 that approximates it; bounds were set here for any values at or beyond the usual limits of such assays
Settings: source organism: Orthohantavirus andesense
pKd: −log10 of the molar value.
Observed property: pKd

Task: Return pKd measured with HLA-B*39:01 given this sequence: "RMMATKDSF"
Result: ≤ 4.70

###

Target: HLA-B*58:01
Assay: IEDB peptide-MHC binding, purified MHC/direct/fluorescence; filed as Kd, often an IC50 or EC50 that approximates it; bounds were set here for any values at or beyond the usual limits of such assays
Settings: source organism: Hepatovirus A
Observed property: Kd

Task: So what does the record say about Kd for "YMYAVSGAL" ?
Result: ≥ 20 µM

###

Molecular target: HLA-A*11:01
Experiment: IEDB peptide-MHC binding, purified MHC/competitive/radioactivity; filed as Kd, often an IC50 or EC50 that approximates it; bounds were set here for any values at or beyond the usual limits of such assays
Details: source organism: Mammarenavirus lassaense
Observed property: Kd (nM)
Write it as a number; the unit nM goes unstated.

Task: So what does the record say about Kd for "ATYLGPQFCK" ?
Result: 3.25

###

Target: HLA-A*26:01
Experiment: IEDB peptide-MHC binding, purified MHC/competitive/fluorescence; filed as Kd, often an IC50 or EC50 that approximates it; bounds were set here for any values at or beyond the usual limits of such assays
Settings: source organism: Hantavirus HPR/02-73
Observed property: Kd

Task: So what does the record say about Kd for "GFAIPIILK" ?
Result: ≥ 20 µM

###

Biological target: HLA-A*26:01
Test: IEDB peptide-MHC binding, purified MHC/direct/fluorescence; filed as Kd, often an IC50 or EC50 that approximates it; bounds were set here for any values at or beyond the usual limits of such assays
Settings: source organism: Escherichia coli O157:H7
pKd: −log10 of the molar value.
Observed property: pKd

Task: So what does the record say about pKd for "ADLRFASEF" ?
Result: ≤ 4.70

###

Biological target: HLA-A*31:01
Test: IEDB peptide-MHC binding, purified MHC/direct/fluorescence; filed as Kd, often an IC50 or EC50 that approximates it; bounds were set here for any values at or beyond the usual limits of such assays
Details: source organism: Mammarenavirus lassaense
Observed property: Kd

Task: So what does the record say about Kd for "VPHVIEEVM" ?
Result: ≥ 20 µM

###

Please provide measured Kd for the entries that follow.
Target: HLA-B*35:01
Assay: IEDB peptide-MHC binding, purified MHC/competitive/radioactivity; filed as Kd, often an IC50 or EC50 that approximates it; bounds were set here for any values at or beyond the usual limits of such assays
Conditions: source organism: Vaccinia virus WR
Write it as a number; the unit µM goes unstated.

Task: So what does the record say about Kd for "NPDNTIAVI" ?
Result: 0.00265

Task: So what does the record say about Kd for "YPFYVSPTEM" ?
Result: 0.00632

Task: So what does the record say about Kd for "TLNHVLALK" ?
Result: 10.4

Task: So what does the record say about Kd for "RPRFDDAYNI" ?
Result: 15

Task: So what does the record say about Kd for "IPVDLVKSSF" ?
Result: 0.00543

Task: So what does the record say about Kd for "IPFDDIVRTM" ?
Result: 0.192

Task: So what does the record say about Kd for "VPEFAKQYVL" ?
Result: 0.0307

Task: So what does the record say about Kd for "NPTSETMYL" ?
Result: 0.0592

Task: So what does the record say about Kd for "TPEQKAYVPA" ?
Result: 11

Task: So what does the record say about Kd for "NTYLFNILY" ?
Result: 10.5
